Entries with reported IC50 on NUAK2(h) enzyme (Homo sapiens)
Sequence (Q9H093 whole entry): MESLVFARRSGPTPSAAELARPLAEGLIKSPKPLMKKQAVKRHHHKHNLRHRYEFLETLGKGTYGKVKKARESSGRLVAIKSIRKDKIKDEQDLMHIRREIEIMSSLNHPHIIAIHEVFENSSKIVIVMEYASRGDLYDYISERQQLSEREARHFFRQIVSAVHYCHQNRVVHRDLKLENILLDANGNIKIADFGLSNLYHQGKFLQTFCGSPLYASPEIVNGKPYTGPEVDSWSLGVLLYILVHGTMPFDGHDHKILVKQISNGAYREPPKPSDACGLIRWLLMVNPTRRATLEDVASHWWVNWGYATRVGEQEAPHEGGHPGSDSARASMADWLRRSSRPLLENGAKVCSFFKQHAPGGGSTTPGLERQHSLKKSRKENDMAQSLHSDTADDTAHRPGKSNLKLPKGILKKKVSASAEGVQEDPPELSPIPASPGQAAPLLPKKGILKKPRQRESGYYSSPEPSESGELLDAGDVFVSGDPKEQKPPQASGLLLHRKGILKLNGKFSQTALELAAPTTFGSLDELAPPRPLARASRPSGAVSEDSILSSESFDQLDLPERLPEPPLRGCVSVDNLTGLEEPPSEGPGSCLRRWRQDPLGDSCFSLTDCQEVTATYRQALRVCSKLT

The cases that follow already have their IC50 on record.
- COMPOUND: "COc1cc(N2CCN(C)CC2)ccc1Nc1ncc2c(C)cc(=O)n(C3CCCC3)c2n1 [Example 27]"
  OBSERVED_VALUE: "100 to 1000 nM"
- COMPOUND: "COc1cc(N2CCN(C)CC2)ccc1Nc1ncc2cc(C)c(=O)n(C3CCCC3)c2n1 [Example 20]"
  OBSERVED_VALUE: "10 to 100 nM"
- COMPOUND: "COc1cc(N2CCN(C)CC2)ccc1Nc1ncc2c(n1)N(C1CCCC1)C(=O)CC2 [Example 28]"
  OBSERVED_VALUE: "10 to 100 nM"
- COMPOUND: "CC(C)Oc1cc(N2CCN(C)CC2)ccc1Nc1ncc2cnc(=O)n(C3CCCC3)c2n1 [Example 8]"
  OBSERVED_VALUE: "> 1000 nM"
- COMPOUND: "COc1cc(N2CCN(C)CC2)ccc1Nc1ncc2ccc(=O)n(C3CC3)c2n1 [Example 23]"
  OBSERVED_VALUE: "100 to 1000 nM"

// query Quote IC50 reported for COc1cc(N2CCN(C)CC2)ccc1Nc1ncc2cnc(=O)n(C3CCC3)c2n1 [Example 14] please.
// result 100 to 1000 nM

// query Quote IC50 reported for COc1cc(N2CCN(C)CC2)ccc1Nc1ncc2c(n1)N(C1CCCC1)C(=O)CO2 [Example 31] please.
// result 100 to 1000 nM

// query Quote IC50 reported for COc1cc(N2CCN(C)CC2)ccc1Nc1ncc2cc(C#N)c(=O)n(C3CCCC3)c2n1 [Example 26] please.
// result 10 to 100 nM

// query Quote IC50 reported for COc1cc(N2CCN(C)CC2)ccc1Nc1ncc2c(n1)N(C1CCCC1)C(=O)NC2 [Example 2] please.
// result 10 to 100 nM

// query Quote IC50 reported for CN1CCN(c2ccc(Nc3ncc4cnc(=O)n(C5CCCC5)c4n3)c(OC(F)(F)F)c2)CC1 [Example 9] please.
// result > 1000 nM

// query Quote IC50 reported for CCC(=O)Nc1cccc(Oc2nc(Nc3ccc(N4CCN(C)CC4)cc3OC)ncc2I)c1 [HTH-02-006, reference compound] please.
// result 100 to 1000 nM

// query Quote IC50 reported for CCOc1cc(N2CCN(C)CC2)ccc1Nc1ncc2cnc(=O)n(C3CCCC3)c2n1 [Example 7] please.
// result 100 to 1000 nM

// query Quote IC50 reported for CN1CCN(c2ccc(Nc3ncc4c(n3)N(C3CCCC3)C(=O)NC4)c(Br)c2)CC1 [Example 32] please.
// result 10 to 100 nM

// query Quote IC50 reported for COc1cc(N2CCN(C)CC2)ccc1Nc1ncc2cnc(=O)n(C3CCCC3)c2n1 [Example 5] please.
// result ≤ 10 nM

// query Quote IC50 reported for COc1cc(N2CCN(C)CC2)ccc1Nc1nnc2ccc(=O)n(C3CCCC3)c2n1 [Example 24] please.
// result 10 to 100 nM

// query Quote IC50 reported for COc1cc(N2CCN(C)CC2)ccc1Nc1ncc2c(C)c(C(C)=O)c(=O)n(C3CCCC3)c2n1 [Example 36] please.
// result 100 to 1000 nM

// query Quote IC50 reported for COc1cc(N2CCN(C)CC2)ccc1Nc1ncc2cncc(C3=CCCC3)c2n1 [Example 35] please.
// result 10 to 100 nM

----------
Entries with reported IC50 on NUAK1(h) enzyme (Homo sapiens, UniProt O60285)
Sequence (O60285 whole entry): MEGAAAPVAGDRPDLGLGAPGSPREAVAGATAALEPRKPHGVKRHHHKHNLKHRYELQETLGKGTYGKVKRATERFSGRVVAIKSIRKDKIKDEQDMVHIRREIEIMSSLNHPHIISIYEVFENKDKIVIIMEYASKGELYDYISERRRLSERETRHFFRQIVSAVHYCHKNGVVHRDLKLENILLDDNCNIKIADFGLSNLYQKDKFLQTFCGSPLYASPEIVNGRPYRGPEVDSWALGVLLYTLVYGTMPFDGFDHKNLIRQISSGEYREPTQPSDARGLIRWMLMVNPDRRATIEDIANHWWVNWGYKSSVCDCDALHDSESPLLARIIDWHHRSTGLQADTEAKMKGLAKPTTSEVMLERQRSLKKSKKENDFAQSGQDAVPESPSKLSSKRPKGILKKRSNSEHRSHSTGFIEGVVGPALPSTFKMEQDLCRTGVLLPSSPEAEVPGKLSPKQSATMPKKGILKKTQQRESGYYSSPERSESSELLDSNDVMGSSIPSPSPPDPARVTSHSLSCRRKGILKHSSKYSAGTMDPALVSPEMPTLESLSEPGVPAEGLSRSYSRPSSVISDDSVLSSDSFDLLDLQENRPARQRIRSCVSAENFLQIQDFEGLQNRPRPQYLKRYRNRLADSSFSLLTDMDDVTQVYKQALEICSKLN

- SMILES_RECORD: "COc1cc(N2CCNCC2)ccc1Nc1ncc2c(C)c(C(C)=O)c(=O)n(C3CCCC3)c2n1"
  IC50: "> 1000 nM"
- SMILES_RECORD: "COc1cc(N2CCN(C)CC2)ccc1Nc1ncc2c(n1)N(C1CC1)C(=O)NC2"
  IC50: "100 to 1000 nM"
- SMILES_RECORD: "COc1cc(N2CCN(C)CC2)ccc1Nc1nc(C)c2cnc(=O)n(C3CCCC3)c2n1"
  IC50: "> 1000 nM"
- SMILES_RECORD: "COc1cc(N2CCN(C)CC2)ccc1Nc1nnc2ccc(=O)n(C3CCCC3)c2n1"
  IC50: "100 to 1000 nM"
- SMILES_RECORD: "COc1cc(N2CCN(C)CC2)ccc1Nc1ncc2c(n1)N(C1CCCCC1)C(=O)CC2"
  IC50: "10 to 100 nM"
- SMILES_RECORD: "COc1cc(N2CCN(C)CC2)ccc1Nc1ncc2cncc(C3=CCCC3)c2n1"
  IC50: "10 to 100 nM"

Now examine the next entry.
// query Identify measured IC50 obtained with NUAK1(h) enzyme (Homo sapiens, UniProt O60285) for CN1CCN(c2ccc(Nc3ncc4c(n3)N(C3CCCC3)C(=O)NC4)c(Br)c2)CC1 .
// result 10 to 100 nM
